# TARGET OF ASSAY: BSA (UniProt P02769)
# Sequence (P02769 25-607 limits assumed): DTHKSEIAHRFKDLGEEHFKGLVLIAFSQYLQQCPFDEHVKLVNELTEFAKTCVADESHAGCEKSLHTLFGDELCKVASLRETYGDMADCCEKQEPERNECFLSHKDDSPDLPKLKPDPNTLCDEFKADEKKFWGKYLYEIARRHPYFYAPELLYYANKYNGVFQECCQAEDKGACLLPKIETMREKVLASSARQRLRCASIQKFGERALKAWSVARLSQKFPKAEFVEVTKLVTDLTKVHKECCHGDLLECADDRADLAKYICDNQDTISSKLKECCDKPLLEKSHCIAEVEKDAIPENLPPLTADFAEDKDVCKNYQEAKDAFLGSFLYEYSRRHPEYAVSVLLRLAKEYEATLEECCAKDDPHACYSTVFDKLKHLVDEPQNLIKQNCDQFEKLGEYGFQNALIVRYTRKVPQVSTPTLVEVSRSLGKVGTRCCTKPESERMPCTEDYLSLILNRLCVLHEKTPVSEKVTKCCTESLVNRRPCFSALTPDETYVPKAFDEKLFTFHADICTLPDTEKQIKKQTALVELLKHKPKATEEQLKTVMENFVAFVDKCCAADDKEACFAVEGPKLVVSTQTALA
# PROTOCOL DETAILS: scFv ELISA
Parameter threshold = 0.08 OD450. Response is Condition met when OD450 meets or exceeds it, else Condition not met.

Answered cases to consult:
- BINDER: "PcOxP_DB03_F11 (scFv, V domains shown, scFv in periplasmic extract) VH: EVQLLESGGGLVQPGGSLRLSCAASGFTFSDYYMEWVRQAPGKGLEWVAASRNKANSYTTAYADSVKGRFTISRDNSKNTLYLQMNSLRAEDTAVYYCARDYYGSSYWYFDVWGQGTLVTVSS VL: DIVMTQSPDSLAVSLGERATINCTSSQSLLYSSNKKHYLAWYQQKPGQPPKLLIYGASNRYIGVPDRFSGSGSGTDFTLTISSLQAEDVAVYYCAQFYEYPLTFGGGTKVEIK"
  LABEL CLASS: "Condition met"
- BINDER: "PcOxP_DB03_B12 (scFv, V domains shown, scFv in periplasmic extract) VH: EVQLLESGGGLVQPGGSLRLSCAASGFQFSDFYMEWVRQAPGKGLEWVAASRWKANDYTTEYADSVKGRFTISRDNSKNTLYLQMNSLRAEDTAVYYCARDYYGSSYWYFDVWGQGTLVTVSS VL: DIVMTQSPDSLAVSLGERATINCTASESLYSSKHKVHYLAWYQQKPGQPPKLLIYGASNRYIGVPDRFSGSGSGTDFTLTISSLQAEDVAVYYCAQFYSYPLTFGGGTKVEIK"
  LABEL CLASS: "Condition not met"
- BINDER: "PcOxP_DB03_G01 (scFv, V domains shown, scFv in periplasmic extract) VH: EVQLLESGGGLVQPGGSLRLSCAASGFTFSDGYMEWVRQAPGKGLEWVAASRNKANFYTTEYADSVKGRFTISRDNSKNTLYLQMNSLRAEDTAVYYCARDHYGSSYWYFDVWGQGTLVTVSS VL: DIVMTQSPDSLAVSLGERATINCTASESLYSSKHKVHYLAWYQQKPGQPPKLLIYGASNRYIGVPDRFSGSGSGTDFTLTISSLQAEDVAVYYCAQFYNYPLTFGGGTKVEIK"
  LABEL CLASS: "Condition met"
- BINDER: "PcOxP_DB02_D02 (scFv, V domains shown, scFv in periplasmic extract) VH: EVQLLESGGGLVQPGGSLRLSCAASGFTFSDYYMEWVRQAPGKGLEWVAASRNKANDYTTEYADSVKGRFTISRDNSKNTLYLQMNSLRAEDTAVYYCARDYYGSSYWYFDTWGQGTLVTVSS VL: DIVMTQSPDSLAVSLGERATINCTSSESVYSSSHKVHYLAWYQQKPGQPPKLLIYGASNRYIGVPDRFSGSGSGTDFTLTISSLQAEDVAVYYCAQFYYYPLTFGGGTKVEIK"
  LABEL CLASS: "Condition not met"
- BINDER: "PcOxP_DB01_B09 (scFv, V domains shown, scFv in periplasmic extract) VH: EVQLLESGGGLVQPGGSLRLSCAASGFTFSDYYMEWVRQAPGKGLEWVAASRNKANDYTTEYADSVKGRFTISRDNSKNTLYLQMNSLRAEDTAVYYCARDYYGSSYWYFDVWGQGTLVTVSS VL: DIQMTQSPSSLSASVGDRVTITCTASESLYSSKHKVHYLAWYQQKPGKAPKLLIYGASNRYTGVPSRFSGSGSGTDFTLTISSLQPEDFATYYCAQFYHYPLTFGGGTKVEIK"
  LABEL CLASS: "Condition met"
- BINDER: "PcOxP_DB04_A09 (scFv, V domains shown, scFv in periplasmic extract) VH: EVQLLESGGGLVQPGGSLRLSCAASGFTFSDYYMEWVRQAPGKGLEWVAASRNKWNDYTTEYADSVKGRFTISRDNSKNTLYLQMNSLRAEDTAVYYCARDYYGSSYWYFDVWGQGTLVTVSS VL: DIQMTQSPSSLSASVGDRVTITCTAEESLYSSKHKVHYLAWYQQKPGKAPKLLIYGASNLYSGVPSRFSGSGSGTDFTLTISSLQPEDFATYYCAQFYSYPLTFGGGTKVEIK"
  LABEL CLASS: "Condition met"

Please examine the following record next.
Prompt: Does the reported OD450 for PcOxP_DB04_F05 (scFv, V domains shown, scFv in periplasmic extract) VH: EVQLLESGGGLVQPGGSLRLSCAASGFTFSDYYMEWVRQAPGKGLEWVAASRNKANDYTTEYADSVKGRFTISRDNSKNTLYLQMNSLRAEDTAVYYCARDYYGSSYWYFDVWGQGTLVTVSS VL: DIVMTQSPDSLAVSLGERATINCTASESLYSSNHKVHYLAWYQQKPGQPPKLLIYGVSNRYIGVPDRFSGSGSGTDFTLTISSLQAEDVAVYYCAQFYSYPLTFGGGTKVEIK fall at or above the 0.08 OD450 mark?
Response: Condition not met
